Where these numbers come from: patent US7524930B2

Reported IFN-γ production from peripheral blood mononuclear cells in recognition of target cells values for the following sequences.
- System: peripheral blood mononuclear cells derived from a cancer patient
- Assay notes: CTL induction by peptide from autologous PBMC of cancer patient, IFN-γ production on recognition of target cells (Example 5)
- Format: cell-based, human
- Applied conditions: target COLO320 (HLA-A24/24); PBMC stimulated with 10 μM peptide
Readout type: IFN-γ production from peripheral blood mononuclear cells in recognition of target cells (pg/mL)

Sequence chain	Value measured
QILKGLLFL (Designed peptide having an ability to activate HLA-A2 restricted Cytotoxic T lymphocytes) [Peptide P16, Gene 5 (ppMAPkkk) 290-298]	0
RIQEWCSVI (RLQEWCSVI; Designed peptide having an ability to activate HLA-A2 restricted Cytotoxic T lymphocytes) [Peptide P1, Gene 1 (UBE2V) 43-51]	50
LLLLARWEDT (Designed peptide having an ability to activate HLA-A2 restricted Cytotoxic T lymphocytes) [Peptide P2, Gene 1 (UBE2V) 64-73]	5
NVLHFFNAPL (Designed peptide having an ability to activate HLA-A2 restricted Cytotoxic T lymphocytes) [Peptide P9, Gene 2 (HNRPL) 501-510]	0

---

- Test system: peripheral blood mononuclear cells derived from a cancer patient
- Assay notes: CTL induction by peptide from autologous PBMC of cancer patient, IFN-γ production on recognition of target cells (Example 5)
- Type: cell-based, human
- Applied conditions: target Panc-1 (HLA-A0201/11); PBMC stimulated with 10 μM peptide
Values of IFN-γ production from peripheral blood mononuclear cells in recognition of target cells greater than or equal to 100 pg/mL map to true; values below map to false.

Sequence chain	Discrete label
QILKGLLFL (Designed peptide having an ability to activate HLA-A2 restricted Cytotoxic T lymphocytes) [Peptide P16, Gene 5 (ppMAPkkk) 290-298]	true
LLLLARWEDT (Designed peptide having an ability to activate HLA-A2 restricted Cytotoxic T lymphocytes) [Peptide P2, Gene 1 (UBE2V) 64-73]	false
DLLSHAFFA [Peptide P18]	true
TLLRKERGV (Designed peptide having an ability to activate HLA-A2 restricted Cytotoxic T lymphocytes) [Peptide P13, Gene 3 (WHSC2) 267-275]	true
LIADETSGL [Peptide P3, Gene 1 (UBE2V) 85-93]	true
LLQDWHVIL (Designed peptide having an ability to activate HLA-A2 restricted Cytotoxic T lymphocytes) [Peptide P4, Gene 1 (UBE2V) 201-209]	false
ILPRKHHRI (Designed peptide having an ability to activate HLA-A2 restricted Cytotoxic T lymphocytes) [Peptide P5, Gene 1 (UBE2V) 208-216]	true

---

- Test system: peripheral blood mononuclear cells derived from a cancer patient
- Assay notes: CTL induction by peptide from autologous PBMC of cancer patient, IFN-γ production on recognition of target cells (Example 5)
- Format: cell-based, human
- Applied conditions: target Panc-1 (HLA-A0201/11); PBMC stimulated with 10 μM peptide
Threshold 200 pg/mL. IFN-γ production from peripheral blood mononuclear cells in recognition of target cells below it: YES. IFN-γ production from peripheral blood mononuclear cells in recognition of target cells at it or above: NO.

Sequence chain	Discrete label
RIQEWCSVI (RLQEWCSVI; Designed peptide having an ability to activate HLA-A2 restricted Cytotoxic T lymphocytes) [Peptide P1, Gene 1 (UBE2V) 43-51]	NO
ALVEFEDVL (Designed peptide having an ability to activate HLA-A2 restricted Cytotoxic T lymphocytes) [Peptide P6, Gene 2 (HNRPL) 140-148]	NO
CLYGNVEKV (Designed peptide having an ability to activate HLA-A2 restricted Cytotoxic T lymphocytes) [Peptide P7, Gene 2 (HNRPL) 404-412]	YES
ASLDSDPWV (Designed peptide having an ability to activate HLA-A2 restricted Cytotoxic T lymphocytes) [Peptide P10, Gene 3 (WHSC2) 103-111]	YES
